# collision cross section (N2) values compiled below
settings: [M-H]-; instrument: DT; stepped-field
measured_endpoint: collision cross section (N2) (Å²)

molecule_smiles	u	test_result
N[C@@H](CC(=O)O)C(=O)O	Å²	120.39
CCCCCCCCCCCC(=O)O	Å²	154.82
CN1CC(=O)N=C1N	Å²	120.7
CCCCCCCCCCCCCCCC(=O)O	Å²	169.12

====

The following molecules are shown together with reported collision cross section (N2) values.
settings: [M+Na-2H]-; instrument: DT; single field, calibrated with ESI Low Concentration Tuning Mix (Agilent)
measured_endpoint: collision cross section (N2) (Å²)

molecule	measured_endpoint	test_result
O=c1nc[nH]c2c1ncn2[C@@H]1O[C@H](COP(=O)(O)OP(=O)(O)O)[C@@H](O)[C@H]1O [INOSINE 5'-DIPHOSPHATE]	collision cross section (N2)	180
Nc1ncnc2c1ncn2[C@@H]1O[C@H](COP(=O)(O)O)[C@@H](O)[C@H]1O [ADENOSINE-MONOPHOSPHATE]	collision cross section (N2)	179.5
O=P(O)(O)OC[C@H]1OC(O)[C@H](O)[C@@H](O)[C@@H]1O (some centres undefined) [GLUCOSE 6-PHOSPHATE]	collision cross section (N2)	156.9
O=C(CO)[C@@H](O)[C@H](O)[C@H](O)COP(=O)(O)O [FRUCTOSE 6-PHOSPHATE]	collision cross section (N2)	154.9

====

settings: [M+H]+; instrument: DT; stepped-field

compound	collision cross section (N2) [Å²]
CCCCC/C=C\C/C=C\CCCCCCCCCCCC(=O)O[C@H](COC(=O)CCCCCCCCCCCCCCCCCCC)COP(=O)(O)OC[C@H](N)C(=O)O [PS(42:02)]	299.5
CCCCCCCC/C=C\CCCCCCCCCC(=O)OC[C@H](COP(=O)(O)OC[C@H](N)C(=O)O)OC(=O)CCCCCCCCCCCCCCCCCCC [PS(40:01)]	295.93
CCCCCCCCCCCCC=CC[C@@H](O)[C@H](COP(=O)([O-])OCC[N+](C)(C)C)NC(=O)CCCCCCCCCCCCCCCCCCCCC [SM(40:01)]	297.88
CCCCCCCC/C=C\CCCCCCCC(=O)O[C@H](COC(=O)CCCCCCCCCCCCCCCCC)COP(=O)(O)OCCN [PE(36:01)]	277.02
CCCCC/C=C\C/C=C\CCCCCCCCCCCC(=O)O[C@H](COC(=O)CCCCCCCCC/C=C\CCCCCCCC)COP(=O)(O)OC[C@H](N)C(=O)O [PS(42:03)]	298.03
CCCCCCCCCCCCC=CC[C@@H](O)[C@H](CO[C@@H]1O[C@H](CO)[C@@H](O)C(O)C1O)NC(=O)CC=CCCCCCCCCCCCCCCCC (stereo partly specified) [GlcCer(38:02)]	287.87

====

Listing: collision cross section (N2) of selected molecules
conditions: [M+NH4]+; instrument: DT; single field, calibrated with Agilent tune mix (Agilent)
measured_endpoint: collision cross section (N2) (Å²)

molecule_smiles	measured_endpoint	u	test_result
CCCCC/C=C\C/C=C\CCCCCCCCCC(=O)OC[C@@H](COC(=O)CCCCCCCCCCC)OC(=O)CCCCCCCCCCC	collision cross section (N2)	Å²	292.9
CC/C=C\C/C=C\C/C=C\C/C=C\C/C=C\CCCCCC(=O)OC[C@@H](COC(=O)CCCC/C=C\C/C=C\C/C=C\C/C=C\CC)OC(=O)CCCCCC/C=C\C/C=C\C/C=C\CCCCC	collision cross section (N2)	Å²	331.7
CCCCC/C=C\C/C=C\CCCCCCCC(=O)O[C@H](COC(=O)CCCCCCCCCCCCCCC)COP(=O)(O)O	collision cross section (N2)	Å²	267.8
CCCCCC/C=C\CCCCCCCC(=O)OC[C@H](CO)OC(=O)CCCCCCCCCCCCCCCCC	collision cross section (N2)	Å²	261.1
CCCCCCCCCCCCCCCC(=O)OC[C@@H](COC(=O)CCCCCCCCCCC)OC(=O)CCCCCCCCCCC	collision cross section (N2)	Å²	285
CCCCCCCCC/C=C\CCCCCCCC(=O)OC[C@@H](COC(=O)CCCCCCCCCCC)OC(=O)CCCCCCC/C=C\CCCCCCCCC	collision cross section (N2)	Å²	315.8
CCCCC/C=C\C/C=C\CCCCCCCC(=O)OC[C@H](COC(=O)CCCCCCCCC/C=C\CCCCCCCCCC)OC(=O)CCCCCCCCC/C=C\CCCCCCCCCC	collision cross section (N2)	Å²	345.8

Origin of measurements: the C3SDB collision cross section collection
